Test Name: Cytotoxic Profiling in NIH 3T3 Cell Line of Diverse Libraries Using Quantitative High-Throughput Screening; further: nearly all actives have a fitted effect of over 55% in size
Condition Details: NIH 3T3 viability, CellTiter-Glo ATP luminescence, 48-72 h; series mostly up to 96.7 µM
About 4,000 (4.3%) of roughly 94,000 compounds were called active. Roughly 29% stayed inconclusive and do not appear here. The call rests on the fitted dose curve; in most records, active means well fitted inhibition curve with a large enough effect; inconclusive means small, poorly fitted or top-dose-only effect; inactive means no such curve, though single readings can be large or run the other way. This excerpt belongs to a sample that is enriched for actives.
Write down the outcome that applies. Available outcomes: active, inactive

Data request: GET /call?item= O=C(Cc1ccc(F)cc1)NC1CCN(c2nc3ncccc3o2)C1 (centres undefined) returns the recorded outcome of this test.
Data returned: inactive

----------
Test Name: Cytotoxic Profiling in NIH 3T3 Cell Line of Diverse Libraries Using Quantitative High-Throughput Screening; further: nearly all actives have a fitted effect of over 55% in size
Condition Details: NIH 3T3 viability, CellTiter-Glo ATP luminescence, 48-72 h; series mostly up to 96.7 µM
The whole screen tested about 94,000 compounds, of which about 4,000 (4.3%) were called active. Inconclusive results (about 29%) are left out. Calls follow the shape of the dose curve; as a rule, active = well fitted inhibition curve with a large enough effect; inconclusive = small, poorly fitted or top-dose-only effect; inactive = no such curve, though single readings can be large or run the other way. The list comes from a sample in which actives are over-represented; it also holds close analogues and randomly drawn compounds.
Write down the outcome that applies. Available outcomes: Y = active, N = inactive

Previously resolved entries follow.
Data request: GET /call?item= O=C(NCc1nnc2n1C(C(=O)NC1CC1)CC2)c1ccncc1 (configuration not stated) returns the recorded outcome of this test.
Data returned: N

Data request: GET /call?item= "O=C(c1ccco1)N1Cc2[nH]cnc2C[C@H]1c1nc(-c2ccncc2)no1" returns the recorded outcome of this test.
Data returned: N

Data request: GET /call?item= "Cc1ccc(CN2CCOC[C@H]2c2ncc(-c3cccc(F)c3)[nH]2)cc1" returns the recorded outcome of this test.
Data returned: Y

Data request: GET /call?item= "O=C(Nc1ccc2ncnc(N3CCCCC3)c2c1)c1ccc2c(c1)OCO2" returns the recorded outcome of this test.
Data returned: N

Data request: GET /call?item= "CN1C(=O)CC[C@]2(C(=O)NCC3CCCCC3)CCCC[C@@H]12" returns the recorded outcome of this test.
Data returned: N

Data request: GET /call?item= CC(=O)N1CC2(CCN(Cc3ncc[nH]3)CC2)CC1C(=O)O (configuration not stated) returns the recorded outcome of this test.
Data returned: N

Now for a further molecule.
Data request: GET /call?item= O=C(c1nc2sccn2c1CN1CCCC(CO)C1)N1CCCCC1 (configuration not stated) returns the recorded outcome of this test.
Data returned: N

----------
Test Name: Cytotoxic Profiling in NIH 3T3 Cell Line of Diverse Libraries Using Quantitative High-Throughput Screening; further: nearly all actives have a fitted effect of over 55% in size
Condition Details: NIH 3T3 viability, CellTiter-Glo ATP luminescence, 48-72 h; series mostly up to 96.7 µM
The campaign covered roughly 94,000 compounds. About 4,000 (4.3%) were called active. About 29% were inconclusive and are not listed. Calls come from the whole dose curve; as a rule, active = well fitted inhibition curve with a large enough effect; inconclusive = small, poorly fitted or top-dose-only effect; inactive = no such curve, though single readings can be large or run the other way. The entries come from a sample that favours actives as a whole.
Write down the outcome that applies. Available outcomes: active, inactive

Previously resolved entries follow.
Data request: GET /call?item= CNC(=O)c1cc(C)nc2onc(C3CCN(C(=O)C4CCCCC4)C3)c12 (stereo unspecified) returns the recorded outcome of this test.
Data returned: inactive

Data request: GET /call?item= "O=C(NCc1ccc(F)cc1)C1CCN(c2nccc(Nc3ccccc3F)n2)CC1" returns the recorded outcome of this test.
Data returned: active

Data request: GET /call?item= O=C(NC1CCCCC1)C1CCCN(c2nccc(Nc3ccccc3F)n2)C1 (stereo unspecified) returns the recorded outcome of this test.
Data returned: active

***
Data request: GET /call?item= CC(C)(C)OCC1CN(Cc2cccs2)C(=O)c2cccnc2O1 (stereo unspecified) returns the recorded outcome of this test.
Data returned: inactive

Data request: GET /call?item= "Cn1ncc2c(C(=O)N3CCC(c4ccccc4)CC3)cc(-c3ccc(F)cc3)nc21" returns the recorded outcome of this test.
Data returned: active

Data request: GET /call?item= "O=C(O)C[C@@H]1CCN(C(=O)C(=O)O)C[C@@H]1CC1=NCCc2cc(F)ccc21" returns the recorded outcome of this test.
Data returned: inactive

Data request: GET /call?item= "CC(C)CNc1ncnc2c1CN(C1CCC1)C(=O)CN2C" returns the recorded outcome of this test.
Data returned: inactive

Data request: GET /call?item= "O=C(Cn1c2c(c(=O)n1Cc1ccccc1)CCN(Cc1ccccc1)C2)NCc1cccc(Cl)c1" returns the recorded outcome of this test.
Data returned: inactive

Data request: GET /call?item= Cc1ccccc1S(=O)(=O)N1CCC2(CC1)CC(OCC1CC1)CCO2 (stereo unspecified) returns the recorded outcome of this test.
Data returned: inactive
